All values here come from patent US5605929A.

Below is a list of entries, each paired with its recorded inhibition at 200 µM value.
Target: 5α-Reductase of Rat Liver Microsomes (Rattus norvegicus)
Experiment: biochemical
Conditions: read-out: % Inhibition of [^3 H]4-MA binding, Table 1, 200 μM
Lab book: enter the figure in %, no units written.

Previously resolved entries follow.
MOLECULE	TARGET_OR_TEST_SYSTEM	UNIT_NAME	inhibition at 200 µM
CC/C=C\C/C=C\C/C=C\C/C=C\C/C=C\C/C=C\CCC(=O)O [Docosahexaenoic acid, cis-4,7,10,13,16,19-docosahexaenoic acid]	5α-Reductase of Rat Liver Microsomes (Rattus norvegicus)	%	87
CC/C=C\C/C=C\C/C=C\C/C=C\CCCCC(=O)O	5α-Reductase of Rat Liver Microsomes (Rattus norvegicus)	%	88

Next:
The reported value for CC/C=C\C/C=C\C/C=C\CCCCCCCC(=O)O in terms of inhibition at 200 µM is 84

====

Target: 5α-Reductase of Rat Liver Microsomes (Rattus norvegicus)
Test: biochemical
QUANTITY_KIND: Ki (nM)
Lab book: enter the figure in nM, no units written.

The reported value for CCN(CC)C(=O)[C@H]1CC[C@H]2[C@@H]3CC[C@H]4N(C)C(=O)CC[C@]4(C)[C@H]3CC[C@]12C [4-MA] in terms of Ki is 13

====

Molecular target: 5α-Reductase of Rat Liver Microsomes (Rattus norvegicus, UniProt P24008)
Test: [3H]4-MA binding assay, rat liver microsomes (tea catechins)
Conditions: read-out: % Inhibition of [^3 H]4-MA binding
QUANTITY_KIND: inhibition at 10 µM (%)
Lab book: enter the figure in %, no units written.

Previously resolved entries follow.
MOLECULE	inhibition at 10 µM [%]
O=C(O[C@@H]1Cc2c(O)cc(O)cc2O[C@@H]1c1cc(O)c(O)c(O)c1)c1cc(O)c(O)c(O)c1 [EGCG, (-)Epigallocatechin-3-gallate]	74
O=C(O[C@H]1Cc2c(O)cc(O)cc2O[C@@H]1c1ccc(O)c(O)c1)c1cc(O)c(O)c(O)c1 [CG, (-)Catechin-3-gallate]	31

The reported value for O=C(O[C@@H]1Cc2c(O)cc(O)cc2O[C@@H]1c1ccc(O)c(O)c1)c1cc(O)c(O)c(O)c1 [ECG, (-)Epicatechin-3-gallate] in terms of inhibition at 10 µM is 44

====

Target: 5α-Reductase of Rat Liver Microsomes (Rattus norvegicus)
Test: biochemical
Conditions: read-out: % Inhibition of [^3 H]4-MA binding, Table 2, 40 μM
Below is a list of entries, each paired with its recorded inhibition at 40 µM value.
Lab book: enter the figure in %, no units written.

Previously resolved entries follow.
COMPOUND	ASSAY_VALUE
CCCCCC/C=C\CCCCCCCCCC(=O)O	55
CCCCCC/C=C\CCCCCCCCCCC(=O)O [12-cis-Nonadecenoic Acid, 12-nonadecenoic acid]	32
CCCCC/C=C\C/C=C\C/C=C\CCCCC(=O)OCC(O)CO (centres unmarked)	35
CCCCCCCC/C=C\CCCCCCCC(=O)O	16

Next:
The reported value for CCCCCCCC/C=C\CCCCCCCCC(=O)O [10-cis-Nonadecenoic Acid, 10-nonadecenoic acid] in terms of inhibition at 40 µM is 13

====

Target: human 5α-reductase isozyme type 2 (Homo sapiens)
Construct: expressed in transfected cells; host or cells: Rat-1A cells infected with pMV7 retrovirus; microsomes of these cells
Experiment: [3H]4-MA binding, human type 2 isozyme expressed in Rat-1A cells
Conditions: read-out: % Inhibition of [^3 H]4-MA binding
Below is a list of entries, each paired with its recorded inhibition at 3 µM value.

COMPOUND	inhibition at 3 µM
O=C(O[C@@H]1Cc2c(O)cc(O)cc2O[C@@H]1c1ccc(O)c(O)c1)c1cc(O)c(O)c(O)c1 [ECG, (-)Epicatechin-3-gallate]	17%
CCCCC/C=C\C/C=C\C/C=C\CCCCC(=O)O	49%
Oc1cc(O)c2c(c1)O[C@H](c1cc(O)c(O)c(O)c1)[C@H](O)C2 [EGC, (-)Epigallocatechin]	< 10%

Next:
# value of inhibition at 3 µM, human 5α-reductase isozyme type 2 (Homo sapiens), item O=C(O[C@@H]1Cc2c(O)cc(O)cc2O[C@@H]1c1cc(O)c(O)c(O)c1)c1cc(O)c(O)c(O)c1 [EGCG, (-)Epigallocatechin-3-gallate] = 12%

====

Below is a list of entries, each paired with its recorded inhibition at 100 µM value.
Molecular target: human 5α-reductase isozyme type 2 (Homo sapiens, UniProt P31213)
Construct: expressed in transfected cells; host or cells: Rat-1A cells infected with pMV7 retrovirus; microsomes of these cells
Sequence (P31213 1-254): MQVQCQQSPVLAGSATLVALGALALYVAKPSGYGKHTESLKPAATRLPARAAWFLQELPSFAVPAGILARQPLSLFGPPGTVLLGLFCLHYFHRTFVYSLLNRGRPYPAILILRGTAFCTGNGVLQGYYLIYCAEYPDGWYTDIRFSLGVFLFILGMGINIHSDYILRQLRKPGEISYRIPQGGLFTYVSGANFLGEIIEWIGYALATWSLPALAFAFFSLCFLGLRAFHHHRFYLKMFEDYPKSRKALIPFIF
Assay: 4-[14C]testosterone reduction, human type 2 isozyme
Assay type: biochemical
Conditions: read-out: % Inhibition of 5α-reduction
Lab book: enter the figure in %, no units written.

COMPOUND	inhibition at 100 µM, %
O=C(O[C@@H]1Cc2c(O)cc(O)cc2O[C@@H]1c1cc(O)c(O)c(O)c1)c1cc(O)c(O)c(O)c1 [EGCG, (-)Epigallocatechin-3-gallate]	73
CCCCC/C=C\C/C=C\C/C=C\CCCCC(=O)O	99

The reported value for O=C(O[C@@H]1Cc2c(O)cc(O)cc2O[C@@H]1c1ccc(O)c(O)c1)c1cc(O)c(O)c(O)c1 [ECG, (-)Epicatechin-3-gallate] in terms of inhibition at 100 µM is 82

====

Target: 5α-Reductase of Rat Liver Microsomes (Rattus norvegicus, UniProt P24008)
Sequence (P24008 1-259): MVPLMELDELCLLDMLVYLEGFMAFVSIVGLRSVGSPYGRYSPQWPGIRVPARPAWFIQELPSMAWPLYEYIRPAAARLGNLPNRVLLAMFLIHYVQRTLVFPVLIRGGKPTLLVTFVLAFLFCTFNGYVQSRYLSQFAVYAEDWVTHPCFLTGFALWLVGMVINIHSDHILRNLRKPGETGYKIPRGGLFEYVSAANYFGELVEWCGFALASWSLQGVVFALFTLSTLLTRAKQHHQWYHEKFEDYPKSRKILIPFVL
Experiment: biochemical
Conditions: read-out: % Inhibition of [^3 H]4-MA binding
Below is a list of entries, each paired with its recorded inhibition at 200 µM value.
Lab book: enter the figure in %, no units written.

COMPOUND	QUANTITY_KIND	ASSAY_VALUE
CC/C=C\C/C=C\C/C=C\CCCCCCCCO [α-Linolenyl alcohol]	inhibition at 200 µM	24
CCCCC/C=C\C/C=C\C/C=C\CCCCC(=O)O [γ-Linolenic acid, γ-linolenic acid]	inhibition at 200 µM	96
C=CCCCCCCCCC(=O)O [Undecylenic acid]	inhibition at 200 µM	13
CCCC/C=C\CCCCCCCC(=O)OC [myristoleic acid methyl ester]	inhibition at 200 µM	27
CC/C=C\C/C=C\C/C=C\C/C=C\C/C=C\C/C=C\CCCO [cis4,7,10,13,,16,19-docosahexenol]	inhibition at 200 µM	51
CCCCCC/C=C\CCCCCCCCO [Palmitoleyl alcohol]	inhibition at 200 µM	16
CCCC/C=C\CCCCCCCC(=O)O [Myristoleic acid]	inhibition at 200 µM	43

Next:
The reported value for CCCCC/C=C\C/C=C\CCCCCCCCO [Linoleyl alcohol] in terms of inhibition at 200 µM is 25

====

Target: 5α-Reductase of Rat Liver Microsomes (Rattus norvegicus, UniProt P24008)
Sequence (P24008 1-259): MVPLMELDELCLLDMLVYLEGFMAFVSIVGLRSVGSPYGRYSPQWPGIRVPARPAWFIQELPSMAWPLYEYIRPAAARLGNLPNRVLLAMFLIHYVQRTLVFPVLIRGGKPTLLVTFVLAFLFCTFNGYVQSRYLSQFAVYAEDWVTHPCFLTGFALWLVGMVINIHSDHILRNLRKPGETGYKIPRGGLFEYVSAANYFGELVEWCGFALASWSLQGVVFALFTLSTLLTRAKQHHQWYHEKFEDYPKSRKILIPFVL
QUANTITY_KIND: IC50

The reported value for CCCCC/C=C\C/C=C\C/C=C\CCCCC(=O)OCC(O)CO (stereo not shown) [Monoγ-Linolenin] in terms of IC50 is 86 µM

====

Biological target: 5α-Reductase of Rat Liver Microsomes (Rattus norvegicus, UniProt P24008)
Sequence (P24008 1-259): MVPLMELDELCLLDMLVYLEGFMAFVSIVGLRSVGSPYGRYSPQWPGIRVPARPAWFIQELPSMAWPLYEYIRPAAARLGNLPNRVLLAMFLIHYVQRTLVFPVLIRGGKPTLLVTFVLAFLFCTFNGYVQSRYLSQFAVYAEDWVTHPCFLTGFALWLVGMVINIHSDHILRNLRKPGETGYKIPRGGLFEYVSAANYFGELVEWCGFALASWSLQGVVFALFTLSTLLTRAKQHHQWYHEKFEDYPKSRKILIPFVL
Experiment: [3H]4-MA binding assay, rat liver microsomes (tea catechins)
Settings: read-out: % Inhibition of [^3 H]4-MA binding
QUANTITY_KIND: inhibition at 40 µM (%)
Lab book: enter the figure in %, no units written.

COMPOUND	inhibition at 40 µM, %
O=C(O[C@@H]1Cc2c(O)cc(O)cc2O[C@@H]1c1cc(O)c(O)c(O)c1)c1cc(O)c(O)c(O)c1 [EGCG, (-)Epigallocatechin-3-gallate]	88

The reported value for O=C(O[C@@H]1Cc2c(O)cc(O)cc2O[C@@H]1c1ccc(O)c(O)c1)c1cc(O)c(O)c(O)c1 [ECG, (-)Epicatechin-3-gallate] in terms of inhibition at 40 µM is 88

The reported value for O=C(O[C@H]1Cc2c(O)cc(O)cc2O[C@@H]1c1ccc(O)c(O)c1)c1cc(O)c(O)c(O)c1 [CG, (-)Catechin-3-gallate] in terms of inhibition at 40 µM is 73
